Measured values drawn from PubChem BioAssay (NCI) for this set.

Test: NCI Yeast Anticancer Drug Screen. Data for the rad50 strain (AID 155);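 further: 0% = growth of vehicle-only cultures of the same strain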
Details: S. cerevisiae rad50 strain growth inhibition; at 50.0 µM (retest, dose inferred, filed as 5.0); hits give high values
The panel holds about 79,000 compounds, 15% with a hit somewhere; the sample as a whole holds those more often.
So basically: growth inhibition at 70% or higher? That is 1 (yes). Lower than 70%? That is 0 (no).

# input Quick check, growth inhibition >= 70%? `CSc1nc(-c2ccccc2)nc(=[N+]2CCOCC2)s1`
# output 1 (yes)

# input Then what about the compound `O=C(/C(=C/c1ccc(O)cc1)c1ccccc1)c1ccccc1` ?
# output 1 (yes)

# input Then what about the compound Cc1cccc(C)c1NC(=O)C(C#N)C1=C(Cl)C(=O)c2ccccc2C1=O (stereo not drawn) ?
# output 1 (yes)

* * *

Experiment: NCI Yeast Anticancer Drug Screen. Data for the rad18 strain (AID 177)
Conditions: S. cerevisiae rad18 mutant growth inhibition; at 33.0 µM; hits give high values
This is part of a sample that, as a whole, favours compounds with a hit. Of some 79,000 tested, about 15% had one in any assay.
So basically: growth inhibition at 20% or higher? That is Condition met. Lower than 20%? That is Condition not met.

# example entries with known answers
O=C(NCCCCN1CC2CCCC2C1)C(C1CCCCC1)C1CCCCC1 (stereo not drawn)
Condition met
c1ccc2c(c1)ccn2CCc1c[nH]c2ccccc12
Condition not met
Cc1c2cc[n+](CCO)cc2c(C)c2c1[nH]c1ccc(O)cc12
Condition met
O=C(C#Cc1ccccc1)/C=C/c1ccccc1
Condition met
O=[N+]([O-])c1cn[n+]([O-])c2ccccc12
Condition met

Alright, here's another molecule for you.
# input Quick check, growth inhibition >= 20%? c1ccc2c(c1)N=C1CCCC3CCCC123 (stereo not drawn)
# output Condition not met

* * *

Assay: NCI Yeast Anticancer Drug Screen. Data for the rad50 strain (AID 155);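 further: 0% = growth of vehicle-only cultures of the same strain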
Details: S. cerevisiae rad50 strain growth inhibition; at 50.0 µM (retest, dose inferred, filed as 5.0); hits give high values
About 79,000 compounds went through this panel and 15% of them were active in at least one assay; those are over-represented in the sample as a whole.
So basically: growth inhibition at 60% or higher? That is t. Lower than 60%? That is f.

# example entries with known answers
Nc1cc2ccccc2cc1N
f
COc1ccc2nc(CCc3ccccc3)ccc2c1
f
O=C(Cc1ccccc1)NNc1nc(NNC(=O)c2ccncc2)nc(Nc2ccc([N+](=O)[O-])cc2)n1
f
CCC(=O)C1=C(O)c2cc(OC)ccc2CC1C(=O)OC (stereo not given)
t

Alright, here's another molecule for you.
# input Quick check, growth inhibition >= 60%? `O=C(Oc1ccc([N+](=O)[O-])cc1)c1ccc([N+](=O)[O-])cc1`
# output t
